# Test system: Brain
# procedure-text: Drug level in rat brain at 10 mg/kg, ip up to 6 hrs
# Format: ADME, organism-based
# Design: dose 10 mg/kg, route intraperitoneal
# test-conditions: in vivo
readout: Drug uptake (ng/g)
Answers are plain numbers, in ng/g.

[ask] Give Drug uptake (Brain) of the following compound: Cc1nc2sc(C(=O)NCc3ccncc3)c(N)c2c(C)c1Cl
[reply] 3410

---

Can you tell me %max for the items I'm about to list?
# target-desc: Muscarinic acetylcholine receptor M4 (Homo sapiens) (UniProt P08173)
# Sequence (P08173 whole entry): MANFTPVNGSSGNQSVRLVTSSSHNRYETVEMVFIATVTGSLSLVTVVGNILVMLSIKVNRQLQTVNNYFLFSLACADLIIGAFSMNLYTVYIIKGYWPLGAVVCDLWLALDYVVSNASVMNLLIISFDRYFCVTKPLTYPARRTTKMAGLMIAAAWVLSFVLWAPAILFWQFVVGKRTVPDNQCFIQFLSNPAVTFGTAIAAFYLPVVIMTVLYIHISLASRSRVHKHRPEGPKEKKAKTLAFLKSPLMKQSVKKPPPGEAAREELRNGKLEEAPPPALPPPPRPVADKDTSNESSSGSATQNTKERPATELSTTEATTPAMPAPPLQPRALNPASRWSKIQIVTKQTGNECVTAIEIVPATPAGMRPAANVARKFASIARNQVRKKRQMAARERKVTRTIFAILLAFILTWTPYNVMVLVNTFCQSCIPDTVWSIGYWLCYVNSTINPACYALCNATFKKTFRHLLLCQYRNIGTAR
# procedure-text: Positive allosteric modulation of human muscarinic M4 receptor expressed in CHO-K1 cells assessed as leftward shift in acetylcholine response treated for 144 secs prior to acetylcholine addition measured for 5 mins by Fluo-4-AM based calcium mobilization assay relative to control
# Type: functional, cell-based
Answers are plain numbers, in %.

molecule: Cc1nc2sc(C(=O)NC3CCOCC3)c(N)c2c(C)c1Cl
%max, %: 78.6
//
molecule: Cc1ccc(CNC(=O)c2sc3nc(C)c(Cl)c(C)c3c2N)cc1
%max, %: 46.8
//
molecule: Cc1nc2sc(C(=O)NC(C)C)c(N)c2c(C)c1Cl
%max, %: 77.3

Quick batch: %max for everything below.
1. Cc1nc2sc(C(=O)NCc3ccncn3)c(N)c2c(C)c1Cl
2. Cc1nc2sc(C(=O)NCc3cnccn3)c(N)c2c(C)c1Cl
3. Cc1nc2sc(C(=O)NC(C)c3cccnc3)c(N)c2c(C)c1Cl (stereo unspecified)

[reply]
[78.5, 83.1, 57.3]
